assay_notes: Inhibition of PDE11
observable: IC50 (nM)

Field: example entries. Status: answers known.
CCCOCCn1c(=O)c(NCCN2CCOCC2)nc2ccc(-c3ccc(OC)nc3)nc21; 1540
COc1ccc(-c2ccc3nc(NCC4CCOCC4)c(=O)n(CC4CCCCC4)c3n2)cn1; 8.1
O=c1c(NCC2CCOCC2)nc2ccc(-c3ccncc3)nc2n1CC1CCCCC1; 36.5
O=c1c(NCC2CCOCC2)nc2ccc(-c3ccc(F)cc3)nc2n1Cc1ccccn1; 970

A = O=c1c(NCC2CCOCC2)nc2ccc(-c3ccc(F)cc3)nc2n1Cc1cccnc1
B = CCCOCCn1c(=O)c(NCC(=O)N(C)C)nc2ccc(-c3ccc(OC)nc3)nc21
C = Nc1nc2ccc(-c3ccc(F)cc3)nc2n(CC2CCCCC2)c1=O
D = COc1ccc(Cn2c(=O)ccc3ccc(-c4ccncc4)cc32)cc1
E = O=c1c(NCC2CCOCC2)nc2ccc(-c3ccc(F)cc3)nc2n1CC1CCCCC1
Q. Ranking field: IC50; order: falling. Present the labels in the sequence the task asks for.
A. B, A, E, C, D

P = COc1ccc(Cn2c(=O)c(NCCN3CCOCC3)nc3ccc(-c4ccc(F)c(F)c4)nc32)cc1
Q = COc1ncc(-c2ccc3nc(NCC4CCOCC4)c(=O)n(CC4CCCCC4)c3n2)cn1
R = Cc1noc(C)c1-c1ccc2nc(NCCN3CCOCC3)c(=O)n(CC3CCCCC3)c2n1
Q. Ranking field: IC50; order: falling. Present the labels in the sequence the task asks for.
A. P, R, Q
(P: 482 nM, R: 286 nM, Q: 8.2 nM)

====

assay_notes: Inhibition of PDE11
observable: IC50 (nM)

O=c1c(NCC2CCOCC2)nc2ccc(-c3ccc(O)nc3)nc2n1CC1CCCCC1; 79.2
CCCOCCn1c(=O)c(NCC2CCOCC2)nc2ccc(-c3ccc(OC)nc3)nc21; 1230
CC(C)OCCn1c(=O)c(NCCN2CCOCC2)nc2ccc(-c3ccc(F)c(F)c3)nc21; 1660

A = CN(C)C(=O)CNc1nc2ccc(-c3ccc(F)cc3)nc2n(CC2CCCCC2)c1=O
B = O=c1c(NCCN2CCOCC2)nc2ccc(-c3ccc(F)cc3)nc2n1CC1CCCCC1
Q. Between A and B , whose measured IC50 reads higher? Record your answer as the label of the chosen record.
A. B

1 = O=c1c(NCCN2CCOCC2)nc2ccc(-c3ccc(F)c(F)c3)nc2n1CC1CCCCC1
2 = COc1ccc(-c2ccc3nc(NCCN4CCOCC4)c(=O)n(CC4CCCCC4)c3n2)cn1
Q. Between 1 and 2 , whose measured IC50 reads higher? Record your answer as the label of the chosen record.
A. 1
(1: 213 nM, 2: 5.9 nM)

====

target_desc: cGMP-specific 3',5'-cyclic phosphodiesterase (Homo sapiens, UniProt O76074)
observable: IC50 (nM)

CCCOCCn1c(=O)c(NCCN2CCOCC2)nc2ccc(-c3cnc(OC)nc3)nc21; 26.7
Nc1nc2ccc(-c3ccc(F)cc3)nc2n(CC2CCCCC2)c1=O; 28.5
COc1ccc(-c2ccc3nc(NCC4CCOCC4)c(=O)n(CC4CCCCC4)c3n2)cn1; 0.3

P = O=c1c(NCC2CCOCC2)nc2ccc(-c3ccc(F)cc3)nc2n1Cc1cc(F)cc(F)c1
Q = COc1ccc(-c2ccc3nc(NCC(=O)N(C)C)c(=O)n(CC4CCCCC4)c3n2)cn1
Q. Between P and Q , whose measured IC50 reads higher? Record your answer as the label of the chosen record.
A. P
(P: 2.7 nM, Q: 0.3 nM)

====

assay_notes: Selectivity ratio of IC50 for PDE11 to IC50 for PDE5
observable: Ratio IC50

COc1ccc(Cn2c(=O)c(NCCN3CCOCC3)nc3ccc(-c4ccc(F)c(F)c4)nc32)cc1; 100
COc1ccc(Cn2c(=O)c(NCCN3CCOCC3)nc3ccc(-c4ccc(F)cc4)nc32)cc1; 100

====

assay_notes: Inhibition of PDE11
pIC50: −log10 of the molar value.
observable: pIC50

COc1ccc(-c2ccc3nc(NCC(=O)N(C)C)c(=O)n(CC4CCCCC4)c3n2)cn1; 8.11

P = COc1ccc(Cn2c(=O)c(NCCN3CCOCC3)nc3ccc(-c4ccc(F)cc4)nc32)cc1
Q = O=c1c(NCc2cccnc2)nc2ccc(-c3ccc(F)cc3)nc2n1CC1CCCCC1
Q. Between P and Q , whose measured pIC50 reads higher? Record your answer as the label of the chosen record.
A. P

====

assay_notes: Selectivity ratio of IC50 for PDE11 to IC50 for PDE5
observable: Ratio IC50

Field: example entries. Status: answers known.
CCCOCCn1c(=O)c(NCC(=O)N(C)C)nc2ccc(-c3ccc(OC)nc3)nc21; > 600
CCCOCCn1c(=O)c(NCCN2CCOCC2)nc2ccc(-c3ccc(OC)nc3)nc21; > 600

Okay, now this compound:
Ratio IC50 recorded for this compound, `CCCOCCn1c(=O)c(NCC2CCOCC2)nc2ccc(-c3ccc(OC)nc3)nc21` , is > 600

====

assay_notes: Inhibition of PDE11
pIC50: −log10 of the molar value.
observable: pIC50

Field: example entries. Status: answers known.
CCCOCCn1c(=O)c(NCCN2CCOCC2)nc2ccc(-c3c(C)noc3C)nc21; < 5.70
CCCCCN1C(=O)CN(C)c2ncc(-c3ccc(F)c(F)c3)cc21; < 5.70
CCCOCCn1c(=O)c(NCCN2CCOCC2)nc2ccc(-c3ccc(F)cc3)nc21; < 5.70
O=c1c(NCC2CCOCC2)nc2ccc(-c3ccc(F)cc3)nc2n1Cc1cc(F)cc(F)c1; 6.41

Okay, now this compound:
pIC50 recorded for this compound, `CCCOCCn1c(=O)c(NCC2CCOCC2)nc2ccc(-c3ccncc3)nc21` , is < 5.70
